src = paper PMC12024540

Give Kd for every item shown.
# measured_on: recombinant human tumor necrosis factor alpha (rhTNF-α) (human)
# Sequence (P01375 77-233): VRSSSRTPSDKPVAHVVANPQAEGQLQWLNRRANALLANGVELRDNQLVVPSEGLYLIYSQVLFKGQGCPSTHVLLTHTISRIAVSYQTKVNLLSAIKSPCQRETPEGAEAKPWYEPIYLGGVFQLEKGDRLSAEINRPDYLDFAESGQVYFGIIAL
# assay_comment: MST; labelled rhTNF-α (RED-NHS 2nd Generation) at 20 nM, peptide titrated in 16 serial dilutions, PBS, 20 min incubation in the dark, Monolith NT.115 Pico, medium MST power
Reply numerically in nM, unit not repeated.

Q: Note down Kd recorded for KRWSRYFWVDMTGTR [OB8 peptide]
Result: 3890

Q: Give Kd for KGGGSGGGSGGGSRKEMGQV [OB2 peptide]
Result: 46.7

Q: Name the recorded Kd of the item KGGGSGGGSHIHDDLLRYYGW [OB1 peptide] in your answer.
Result: 300
